Below, each entry is listed with its recorded shrunken log2 fold change.
Tested on: Escherichia coli TOP10;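 further: peptides expressed intracellularly from a pBAD plasmid library in pooled LB shake-flask culture, induced with 0.3% L-arabinose, DNA abundance read by NGS, three biological replicates, DESeq2 with apeglm shrinkage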
Experiment: shrunken log2 fold change of peptide-encoding DNA abundance (4.5 h post-induction vs induction); higher = less antimicrobial activity (less host growth inhibition)
Conditions: time post-induction: 4.5 h; library: site-saturation at positions 5, 18, 19, 20
EXPERIMENTAL READOUT: shrunken log2 fold change

{"columns": ["POLYMER SEQUENCE", "EXPERIMENTAL READOUT", "QUANTITATIVE RESULT"],
 "data": [
  ["RRIRYRPPRLPRPRPRPLAWPRP", "shrunken log2 fold change", -0.0165],
  ["RRIRGRPPRLPRPRPRPRCIPRP", "shrunken log2 fold change", 0.273],
  ["RRIRCRPPRLPRPRPRPKDHPRP", "shrunken log2 fold change", 0.0424],
  ["RRIRCRPPRLPRPRPRPAHGPRP", "shrunken log2 fold change", 0.23],
  ["RRIRDRPPRLPRPRPRPKEHPRP", "shrunken log2 fold change", 0.0267],
  ["RRIRMRPPRLPRPRPRPSVLPRP", "shrunken log2 fold change", 0.0464],
  ["RRIRQRPPRLPRPRPRPPMPPRP", "shrunken log2 fold change", 0.237],
  ["RRIRSRPPRLPRPRPRPMNKPRP", "shrunken log2 fold change", -0.6],
  ["RRIRYRPPRLPRPRPRPVFPPRP", "shrunken log2 fold change", -0.0627],
  ["RRIRQRPPRLPRPRPRPAKKPRP", "shrunken log2 fold change", -0.0522],
  ["RRIRARPPRLPRPRPRPYDFPRP", "shrunken log2 fold change", -0.772],
  ["RRIRQRPPRLPRPRPRPAIGPRP", "shrunken log2 fold change", 0.216],
  ["RRIRIRPPRLPRPRPRPLENPRP", "shrunken log2 fold change", -0.309],
  ["RRIRYRPPRLPRPRPRPYDAPRP", "shrunken log2 fold change", -0.129],
  ["RRIRIRPPRLPRPRPRPMETPRP", "shrunken log2 fold change", -0.0335],
  ["RRIRPRPPRLPRPRPRPKVYPRP", "shrunken log2 fold change", -0.292],
  ["RRIRFRPPRLPRPRPRPQCVPRP", "shrunken log2 fold change", -0.276],
  ["RRIRGRPPRLPRPRPRPSYDPRP", "shrunken log2 fold change", -0.0196]
]}
